These data points were gathered from patent US8163737B2.

# target-of-assay: endogenous CGRP receptor (Homo sapiens, UniProt O60894+Q16602)
# Sequence (Q16602 23-461): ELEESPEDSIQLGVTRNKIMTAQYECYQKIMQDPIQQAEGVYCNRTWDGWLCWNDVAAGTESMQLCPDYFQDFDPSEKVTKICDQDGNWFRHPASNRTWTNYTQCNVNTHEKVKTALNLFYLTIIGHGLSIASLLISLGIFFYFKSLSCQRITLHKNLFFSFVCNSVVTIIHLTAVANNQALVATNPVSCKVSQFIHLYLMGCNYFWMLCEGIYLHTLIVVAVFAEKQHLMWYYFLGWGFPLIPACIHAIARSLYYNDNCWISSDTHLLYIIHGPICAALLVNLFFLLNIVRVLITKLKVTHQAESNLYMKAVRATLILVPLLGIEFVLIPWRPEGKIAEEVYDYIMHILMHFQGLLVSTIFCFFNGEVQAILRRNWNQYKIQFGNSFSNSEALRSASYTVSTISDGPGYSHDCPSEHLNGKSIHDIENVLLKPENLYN
# Sequence (O60894 27-148): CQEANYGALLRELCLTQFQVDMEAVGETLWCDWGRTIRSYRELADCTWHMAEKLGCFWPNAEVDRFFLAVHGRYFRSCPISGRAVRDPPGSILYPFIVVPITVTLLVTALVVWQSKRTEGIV
# assay-summary: CGRP functional antagonism using SK-N-MC-BLA (4C10), β-lactamase transcriptional reporter assay
# cond: SK-N-MC (4C10) cells, inhibition of β-lactamase expression in the presence of 200 pM CGRP
pIC50: −log10 of the molar value.
Recorded pIC50 for the following molecules

# molecule, target-of-assay, pIC50
measured = [
    ("COc1ccc(C2SC(CC(=O)N3CCC(n4cc(-c5ccccc5)[nH]c4=O)CC3)C(=O)N2CCC(C)C)cc1OC (stereo not shown)", "endogenous CGRP receptor (Homo sapiens, UniProt O60894+Q16602)", "< 5.30"),
    ("Cc1ccccc1C1SC(CC(=O)N2CCC(N3Cc4ccccc4NC3=O)CC2)C(=O)N1CCC(C)C (stereo not shown)", "endogenous CGRP receptor (Homo sapiens, UniProt O60894+Q16602)", "> 6.00"),
    ("CCCCN1CCN(c2ccccc2C2SC(CC(=O)N3CCC(n4c(=O)[nH]c5ncccc54)CC3)C(=O)N2CCC(C)(C)C)CC1 (stereo not shown)", "endogenous CGRP receptor (Homo sapiens, UniProt O60894+Q16602)", "> 6.00"),
    ("CC(=O)N1CCC2(CCN(C(=O)CC3SC(c4ccccc4)N(CCC(C)C)C3=O)CC2)c2ccccc21 (stereo not shown)", "endogenous CGRP receptor (Homo sapiens, UniProt O60894+Q16602)", "< 5.30"),
    ("CC(C)(C)CCN1C(=O)[C@H](CC(=O)N2CCC(n3c(=O)[nH]c4ncccc43)CC2)S[C@H]1c1cccc(F)c1N1CCNCC1", "endogenous CGRP receptor (Homo sapiens, UniProt O60894+Q16602)", "> 6.00"),
    ("CC(C)CCN1C(=O)[C@H](CC(=O)N2CCC(N3Cc4ccccc4NC3=O)CC2)SC1c1ccccn1 (stereo partly shown) [Compound 148]", "endogenous CGRP receptor (Homo sapiens, UniProt O60894+Q16602)", "5.30 to 6.00"),
    ("CC(C)CCN1C(=O)C(CC(=O)N2CCC(N3Cc4ccccc4NC3=O)CC2)SC12c1ccccc1-c1ccccc12 (stereo not shown)", "endogenous CGRP receptor (Homo sapiens, UniProt O60894+Q16602)", "> 6.00"),
]
